I'd be grateful if you could share measured Reduced relative colony forming efficiency, expressed as % inhibition, PC-3 for these entries.
test system: PC-3 prostrate cell adenocarcinoma; experiment: Relative colony forming efficiency after antisense treatment (Table 13); format: cell-based, human; details: 0.2 μM antisense oligodeoxyribonucleotide phosphorothioate; PC-3 cells; averages of 2-8 determinations
Strand notation (5' to 3'): a small letter for the sugar, then the base; units joined by * are phosphorothioate-linked, units joined directly phosphodiester-linked; [ ] holds rarer units or linkages, { } end groups; capitals alone tell only the bases. d = 2'-deoxy (DNA)
Unit % implied. Number only.

Reported Reduced relative colony forming efficiency, expressed as % inhibition, PC-3 ( CAGAATATCGACGCAAAAGA (antisense; DNA, all phosphorothioate, methylation of C not given here) [AS-II-909-20] ) = 84.86

Reported Reduced relative colony forming efficiency, expressed as % inhibition, PC-3 ( TCAGCATCCAAGGTAAAAGA (DNA, all phosphorothioate, methylation of C not given here) [AS-II-1338-20] ) = 93.75

Reported Reduced relative colony forming efficiency, expressed as % inhibition, PC-3 ( GCATCCAAGGTAAAAGAATT (DNA, all phosphorothioate, methylation of C not given here) [AS-II-1335-20] ) = 90.04

Reported Reduced relative colony forming efficiency, expressed as % inhibition, PC-3 ( AGGACTGGTTGTGAGGTAGC (DNA, all phosphorothioate, methylation of C not given here) [AS-II-1499-20] ) = 77.28

Reported Reduced relative colony forming efficiency, expressed as % inhibition, PC-3 ( GGCTAAATCGCTCCACCAAG (dG*dG*dC*dT*dA*dA*dA*dT*dC*dG*dC*dT*dC*dC*dA*dC*dC*dA*dA*dG) [AS-II-626-20] ) = 83.23

Reported Reduced relative colony forming efficiency, expressed as % inhibition, PC-3 ( GsCCsTCCGsACCsCTTCsCCsATTsG (antisense dG*dCdC*dTdCdCdG*dAdCdC*dCdTdTdC*dCdC*dAdTdT*dG) [AS-II-13-20] ) = 52.38
